test system: cultured monkey corneal endothelial cells; assay: UV-induced cell death of cultured monkey corneal endothelial cells (phase difference microscope); assay type: cell-based; settings: UV 100 J/m^2; 9 hours after irradiation; 10 μM SB203580, 3 μM BIRB796, 1 μM PH-797804, 3 μM VX-702, 3 μM LY2228820, 3 μM TAK-715
measured-parameter: Cellular disorders (cell death) induced by UV

>  <compound>
CC(C)(C)Cn1c(N)nc2ccc(-c3nc(C(C)(C)C)[nH]c3-c3ccc(F)cc3)nc21

>  <observed>
suppressed

$$$$
>  <compound>
Cc1ccc(-n2nc(C(C)(C)C)cc2NC(=O)Nc2ccc(OCCN3CCOCC3)c3ccccc23)cc1

>  <observed>
suppressed

$$$$
>  <compound>
CCc1nc(-c2cccc(C)c2)c(-c2ccnc(NC(=O)c3ccccc3)c2)s1

>  <observed>
suppressed

$$$$
>  <compound>
C[S+]([O-])c1ccc(-c2nc(-c3ccncc3)c(-c3ccc(F)cc3)[nH]2)cc1 (centres unmarked)

>  <observed>
suppressed

$$$$

Okay, now this compound:
Cellular disorders (cell death) induced by UV value, target or system cultured monkey corneal endothelial cells, for "CNC(=O)c1ccc(C)c(-n2c(C)cc(OCc3ccc(F)cc3F)c(Br)c2=O)c1" : suppressed
